target: DPP IV (Homo sapiens); experiment: Stability against DPP IV enzyme; type: in vitro ADME; settings: 2 μM peptidomimetic, 37° C., 24 h
Sequence (P27487 whole entry, species assumed): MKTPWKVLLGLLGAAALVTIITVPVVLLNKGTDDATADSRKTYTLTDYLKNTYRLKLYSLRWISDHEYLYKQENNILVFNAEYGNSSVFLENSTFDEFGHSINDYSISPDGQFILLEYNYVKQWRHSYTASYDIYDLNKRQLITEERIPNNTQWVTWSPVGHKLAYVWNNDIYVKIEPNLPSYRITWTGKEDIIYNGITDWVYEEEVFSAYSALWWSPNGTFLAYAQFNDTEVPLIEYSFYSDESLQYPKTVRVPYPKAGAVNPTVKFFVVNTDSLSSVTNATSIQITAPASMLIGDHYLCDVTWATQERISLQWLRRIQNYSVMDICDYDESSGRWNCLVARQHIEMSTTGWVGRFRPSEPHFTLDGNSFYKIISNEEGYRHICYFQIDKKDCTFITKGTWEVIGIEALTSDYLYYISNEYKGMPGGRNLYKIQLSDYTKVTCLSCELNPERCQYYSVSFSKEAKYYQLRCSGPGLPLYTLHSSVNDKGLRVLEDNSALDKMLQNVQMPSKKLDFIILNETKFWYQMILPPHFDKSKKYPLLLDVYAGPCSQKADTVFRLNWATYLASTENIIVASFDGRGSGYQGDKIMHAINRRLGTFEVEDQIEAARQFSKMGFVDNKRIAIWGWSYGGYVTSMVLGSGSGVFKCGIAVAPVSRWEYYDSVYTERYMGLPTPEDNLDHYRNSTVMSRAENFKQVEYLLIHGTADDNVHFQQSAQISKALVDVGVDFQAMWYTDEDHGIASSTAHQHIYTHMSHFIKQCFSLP
Non-standard residues stand in square brackets, D forms with d. Residues, ends and D or L forms follow the SMILES beside them. ξ: configuration not given here. ξBip(2'-Et-4'-OMe) = CCc1cc(OC)ccc1-c1ccc(CC(N)C(=O)O)cc1; ξNva(5-(3,5-Me2-Ph)) = Cc1cc(C)cc(CCCC(N)C(=O)O)c1
Give measured % degradation of peptidomimetics in 24 h when incubated with DPP-IV enzyme for each item. Keep answers brief.
Give bare numbers, in %.

Worked cases, answers included:
Compound	Quantitative Result
CCc1cc(OC)ccc1-c1ccc(CC(NC(=O)[C@H](CC(=O)O)NC(=O)[C@H](CO)NC(=O)[C@@H](NC(=O)[C@H](Cc2ccccc2)NC(=O)[C@@H](NC(=O)CNC(=O)[C@H](CCC(N)=O)NC(=O)[C@H](C)NC(=O)[C@@H](N)Cc2c[nH]cn2)[C@@H](C)O)[C@@H](C)O)C(=O)NC(CCCc2cc(C)cc(C)c2)C(N)=O)cc1 (some centres unmarked) [compound 14] (H-HAQGTFTSD[ξBip(2'-Et-4'-OMe)][ξNva(5-(3,5-Me2-Ph))]-NH2)	74
CCc1cc(OC)ccc1-c1ccc(CC(NC(=O)[C@H](CC(=O)O)NC(=O)[C@H](CO)NC(=O)[C@@H](NC(=O)[C@H](Cc2ccccc2)NC(=O)[C@@H](NC(=O)CNC(=O)C(CCC#N)NC(=O)C(C)(C)NC(=O)[C@@H](N)Cc2c[nH]cn2)[C@@H](C)O)[C@@H](C)O)C(=O)NC(CCCc2ccccc2F)C(N)=O)cc1 (single isomer, unassigned)	74
CCc1cc(OC)ccc1-c1ccc(CC(NC(=O)[C@H](CC(=O)O)NC(=O)[C@H](CO)NC(=O)[C@@H](NC(=O)C(C)(Cc2ccccc2F)NC(=O)[C@@H](NC(=O)CNC(=O)[C@H](CC(C(F)(F)F)C(F)(F)F)NC(=O)C(C)(C)NC(=O)[C@H](Cc2c[nH]cn2)NC(C)=O)[C@@H](C)O)[C@@H](C)O)C(=O)NC(CCCc2ccccc2)C(N)=O)cc1 (single isomer, unassigned)	75
CCc1cc(OC)ccc1-c1ccc(CC(NC(=O)[C@H](CC(=O)O)NC(=O)[C@H](CO)NC(=O)[C@@H](NC(=O)[C@H](Cc2ccccc2)NC(=O)[C@@H](NC(=O)CNC(=O)C(CCC#N)NC(=O)C(C)(C)NC(=O)[C@@H](N)Cc2c[nH]cn2)[C@@H](C)O)[C@@H](C)O)C(=O)NC(CCCc2ccccc2Cl)C(N)=O)cc1 (single isomer, unassigned)	00

Below: the item to evaluate.
Exercise: Entry CCc1cc(OC)ccc1-c1ccc(CC(NC(=O)[C@H](CC(=O)O)NC(=O)[C@H](CO)NC(=O)[C@@H](NC(=O)C(C)(Cc2ccccc2F)NC(=O)[C@@H](NC(=O)CNC(=O)C(CCC#N)NC(=O)C(C)(C)NC(=O)[C@@H](N)Cc2c[nH]cn2)[C@H](C)O)[C@H](C)O)C(=O)NC(CCCc2ccccc2)C(N)=O)cc1 (single isomer, unassigned) : reported % degradation of peptidomimetics in 24 h when incubated with DPP-IV enzyme = ?
Solution: 00

###

system: C57BL/6J mice (mild hyperglycemic); test: In vivo glucose reduction, acute single dose 120-min time-course, i.p. route; set-up: species or system mouse; unit not given here; details: male C57BL/6J mice, 30 nM/kg i.p., 60 min
Property Name: blood glucose levels
Numbers only.

Compound	blood glucose levels
CCc1cc(OC)ccc1-c1ccc(CC(C(=O)N(C)C(CCCc2ccccc2F)C(N)=O)N(C)C(=O)[C@H](CC(=O)O)N(C)C(=O)[C@H](CO)NC(=O)[C@@H](NC(=O)C(C)(Cc2ccccc2F)NC(=O)[C@@H](NC(=O)CNC(=O)C(CCC#N)NC(=O)C(C)(C)NC(=O)[C@@H](N)Cc2c[nH]cn2)[C@H](C)O)[C@H](C)O)cc1 (single isomer, unassigned) [Seq. ID. 156]	117
CCc1cc(OC)ccc1-c1ccc(CC(NC(=O)[C@H](CC(=O)O)NC(=O)[C@H](CO)NC(=O)[C@@H](NC(=O)C(C)(Cc2ccccc2F)NC(=O)[C@@H](NC(=O)CNC(=O)C(CCC#N)NC(=O)C(C)(C)NC(=O)[C@@H](N)Cc2c[nH]cn2)[C@H](C)O)[C@H](C)O)C(=O)N(C)C(CCCc2ccccc2)C(N)=O)cc1 (single isomer, unassigned) [Seq. ID. 130]	117

Here's the next entry for you.
Exercise: Need blood glucose levels of CCc1cc(OC)ccc1-c1ccc(CC(C(=O)N(C)C(CCCc2ccccc2)C(N)=O)N(C)C(=O)[C@H](CC(=O)O)N(C)C(=O)[C@H](CO)NC(=O)[C@@H](NC(=O)C(C)(Cc2ccccc2F)NC(=O)[C@@H](NC(=O)CNC(=O)C(CCC#N)NC(=O)C(C)(C)NC(=O)[C@@H](N)Cc2c[nH]cn2)[C@H](C)O)[C@H](C)O)cc1 (single isomer, unassigned) [Seq. ID. 154] , thanks.
Solution: 117
